Molecular target: N-terminal Xaa-Pro-Lys N-methyltransferase 1 (Homo sapiens)
Assay: Inhibition of NTMT1 (unknown origin) pre-incubated for 10 mins before GPKRIA peptide substrate addition and measured after 20 mins by MALDI-MS methylation assay
pIC50: −log10 of the molar value.
OBSERVATION TYPE: pIC50

query: Which value of pIC50 has been reported for Nc1ncnc2c1ncn2[C@@H]1O[C@H](CNCC[C@H](N)C(=O)O)[C@@H](O)[C@H]1O in the records?
result: < 5.00

###

Measured Kd, listed per entry for reference.
Target: N-terminal Xaa-Pro-Lys N-methyltransferase 1 (Homo sapiens, UniProt Q9BV86)
Sequence (Q9BV86 whole entry): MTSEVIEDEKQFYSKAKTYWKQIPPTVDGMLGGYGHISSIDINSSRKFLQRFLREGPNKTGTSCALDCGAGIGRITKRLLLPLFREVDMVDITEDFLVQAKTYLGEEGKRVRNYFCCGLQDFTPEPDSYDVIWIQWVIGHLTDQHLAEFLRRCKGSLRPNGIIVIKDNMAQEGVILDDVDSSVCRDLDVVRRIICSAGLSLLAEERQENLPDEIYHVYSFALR
Experiment: Binding affinity to NTMT1 (unknown origin) assessed as binding constant Kd2 by ITC assay
Record the result as a number with its unit.

SMILES DATA	TARGET OR TEST SYSTEM	OBSERVATION TYPE	ASSAY VALUE
CC[C@H](C)[C@H](NC(=O)[C@H](CCCNC(=N)N)NC(=O)[C@H](CCCCN)NC(=O)[C@@H]1CCCN1C(=O)CNCCN(CC[C@H](N)C(=O)O)C[C@H]1O[C@@H](n2cnc3c(N)ncnc32)[C@H](O)[C@@H]1O)C(=O)N[C@@H](C)C(N)=O	N-terminal Xaa-Pro-Lys N-methyltransferase 1 (Homo sapiens, UniProt Q9BV86)	Kd	46.7 nM

query: Bench note: what Kd did CC[C@H](C)[C@H](NC(=O)[C@H](CCCNC(=N)N)NC(=O)[C@H](CCCCN)NC(=O)[C@@H]1CCCN1C(=O)CNCCCCN(CC[C@H](N)C(=O)O)C[C@H]1O[C@@H](n2cnc3c(N)ncnc32)[C@H](O)[C@@H]1O)C(=O)N[C@@H](C)C(N)=O show?
result: 2.47 nM

query: Which value of Kd has been reported for CC[C@H](C)[C@H](NC(=O)[C@H](CCCNC(=N)N)NC(=O)[C@H](CCCCN)NC(=O)[C@@H]1CCCN1C(=O)CNCCCCCN(CC[C@H](N)C(=O)O)C[C@H]1O[C@@H](n2cnc3c(N)ncnc32)[C@H](O)[C@@H]1O)C(=O)N[C@@H](C)C(N)=O in the records?
result: 480 nM

query: Data request, read-out Kd, for CC[C@H](C)[C@H](NC(=O)[C@H](CCCNC(=N)N)NC(=O)[C@H](CCCCN)NC(=O)[C@@H]1CCCN1C(=O)CNCCCN(CC[C@H](N)C(=O)O)C[C@H]1O[C@@H](n2cnc3c(N)ncnc32)[C@H](O)[C@@H]1O)C(=O)N[C@@H](C)C(N)=O
result: 41 nM

FYI, the data here is from ChEMBL document CHEMBL4619776.
